- testProtocol: boron accumulation in tumour tissue versus blood
- Type: in vivo
- conditionSet: tumour, ip; after i.p. application; read-out: Zeitpunkt der optimalen Anreicherung im Tumorgewebe
endpointLabel: Tmax (h)
Express your answer in h, writing the number without its unit.

Tell me the measured Tmax of C[N+](C)(C)[10BH2-]C(=O)O [N-Trimethyl-^10B-carboxyaminoboran] , please.
6

---

- testProtocol: boron accumulation in tumour tissue versus blood
- Format: in vivo
- conditionSet: tumour to blood; 6 bis 12 Stunden after intravenous injection; read-out: Bor-Konzentration im Tumor relative to Blut
endpointLabel: Kp

Tell me the measured Kp of C[N+](C)(C)[10BH2-]C(=O)O [N-Trimethyl-^10B-carboxyaminoboran] , please.
2 to 3

---

- testProtocol: acute toxicity (DL50) in the mouse, i.p.
- conditionSet: in vivo, ip, Maus
endpointLabel: LD50

Tell me the measured LD50 of [NH3+][10BH2-]C(=O)O [Ammoniak- ^10B-carboxyboran, Ammoniak- ^10 B-carboxyboran] , please.
~2500 mg/kg

Cool, now C[N+](C)(C)[10BH2-]C(=O)O [N-Trimethyl-^10B-carboxyaminoboran]
~2000 mg/kg

// data source = patent EP0061711A1
